# System: pigweed
# ASSAY_NAME: Test A postemergence
# Format: in vivo, Amaranthus retroflexus
# COND: postemergence, 125 g ai/ha, about 10 days, visual rating on 0 to 100 scale (0 no effect, 100 complete control)
EXPERIMENTAL_READOUT: Pigweed plant response rating
Respond using a number only.

ENTRY_SMILES	Pigweed plant response rating
O=C(NCC(F)(F)F)c1cc(Cl)n(Cc2cccc(C(F)(F)F)c2)n1	60
O=C(NCC(F)(F)F)c1cc(Br)n(Cc2cccc(C(F)(F)F)c2)n1	40
O=C(NC1CC1)c1cc(CCCl)n(Cc2ccnc(C(F)(F)F)c2)n1	100
Cc1cc(C(=O)NCC(F)(F)F)nn1Cc1cccc(C(F)(F)F)c1	30
CCc1cc(C(=O)NOC(C)C)nn1Cc1ccnc(OC(F)F)c1	90

Fill in: Pigweed plant response rating of CCc1cc(-c2ccc(C(F)(F)F)cc2)nn1Cc1ccnc(C(F)(F)F)c1 is ___
100

---

# Test system: chickweed
# ASSAY_NAME: Test C postemergence
# Format: in vivo, Stellaria media
# COND: postemergence, 62 g ai/ha; scale 0 to 100
Quick list: Chickweed plant response rating per entry.
Could you keep your reply to the number by itself?

ENTRY_SMILES	VALUE_MEASURED
CCCc1cc(C(=O)NC2CC2)nn1Cc1cc(C(F)(F)F)nn1C	80
CCONC(=O)c1cc(CC)n(Cc2ccnc(OC(F)F)c2)n1	70
CCCNC(=O)c1cc(CC)n(Cc2nc(C(F)(F)F)nn2C)n1	50
CCOc1cc(C(=O)NCC(F)(F)F)nn1Cc1ccnc(OC(F)F)c1	75
CCONC(=O)c1cc(CC)n(Cc2ccnc(C(F)(F)F)c2)n1	55
CCc1cc(C(=O)NCC(F)(F)F)nn1Cc1cc(C(F)(F)F)nn1C	100
CCONC(=O)c1cc(CC)n(Cc2cccc(OC(F)(F)F)c2)n1	40
CCCNC(=O)c1cc(OCC)n(Cc2ccnc(C(F)(F)F)c2)n1	70

Consider the compound shown here: CCc1cc(C(=O)NCC(F)(F)F)nn1Cc1ccnc(Br)c1 What is its recorded Chickweed plant response rating?
55

---

This section presents compounds with their documented Velvetleaf plant response rating values.
# System: velvetleaf
# ASSAY_NAME: Test A preemergence
# Assay type: in vivo, Abutilon theophrasti
# COND: preemergence, 500 g ai/ha, visual injury after approx. 10 days, 0 to 100 scale (0 no effect, 100 complete control)

ENTRY_SMILES	Velvetleaf plant response rating
CCOc1cc(C(=O)NOC(C)C)nn1Cc1ccnc(C(F)(F)F)c1	100
O=C(NCC(F)(F)F)c1cc(CCF)n(Cc2ccnc(C(F)(F)F)c2)n1	100
CCNC(=O)c1cc(CCF)n(Cc2ccnc(C(F)(F)F)c2)n1	90

Item under review: CCc1cc(C(=O)NC2CC2)nn1Cc1cccc(C(F)(F)F)n1 . Reported Velvetleaf plant response rating?
0

Report Velvetleaf plant response rating for CCc1cc(C(=O)NCC(F)(F)C(F)(F)F)nn1Cc1ccnc(C(F)(F)F)c1 please.
100

---

Items are presented alongside their recorded Foxtail, Giant plant response rating.
# Tested on: foxtail, giant
# ASSAY_NAME: Test A preemergence
# Type: in vivo, Setaria faberii
# COND: preemergence, 500 g ai/ha, visual injury after approx. 10 days, 0 to 100 scale (0 no effect, 100 complete control)
# Excerpt: […]
Give the figure by itself; no unit, no explanation.

Examples from the recorded data:
ENTRY_SMILES	SYSTEM_UNDER_TEST	VALUE_MEASURED
CCc1cc(C(=O)NC2CC2)nn1Cc1nnc(C(F)(F)F)o1	foxtail, giant	50
CCCCNC(=O)c1cc(I)n(Cc2cccc(C(F)(F)F)c2)n1	foxtail, giant	50
O=C(NCC(F)(F)F)c1cc(Cl)n(Cc2cccc(C(F)(F)F)c2)n1	foxtail, giant	50
CCCNC(=O)c1cc(CC)n(Cc2cc(C(F)(F)F)nn2CC)n1	foxtail, giant	100
CCc1cc(C(=O)NC2CC2)nn1Cc1ccnc(Br)c1	foxtail, giant	100

Missing value: Foxtail, Giant plant response rating, foxtail, giant, entry CCc1cc(C(=O)NCC(F)(F)F)nn1Cc1nc(C(F)(F)F)no1 . Fill in?
90

# value lookup — system foxtail, giant, readout Foxtail, Giant plant response rating, item Cc1cc(C(=O)Nc2ccc(F)cc2)nn1Oc1ccnc(C(F)(F)F)c1
10

Form: Entry = CCCNC(=O)c1cc(CC)n(Oc2cccc(OC(F)(F)F)c2)n1 | System = foxtail, giant | Foxtail, Giant plant response rating = ____
20

Form field: Foxtail, Giant plant response rating recorded for CCOc1cc(C(=O)NOC(C)C)nn1Cc1ccnc(C(F)(F)F)c1 with foxtail, giant (enter value)
100

These measurements were taken from patent US20150105252A1.
